- Test system: Human immunodeficiency virus 1
- Protocol: Antiviral activity against Human immunodeficiency virus 1 HXB2 expressing protease M7 mutant infected in human MT4 cells after 5 days by MTT assay
- Assay type: functional, organism-based
- Measurement context: Human immunodeficiency virus 1, HXB2, MT4, 120 h
Endpoint: IC50 (nM)
Field: numeric (nM). Do not append units.

Use these answered entries as a reference point.
Compound: CC(C)CNC=C1C(=O)Nc2ccc(S(=O)(=O)N(CC(C)C)C[C@@H](O)[C@H](Cc3ccccc3)NC(=O)O[C@H]3CO[C@H]4OCC[C@H]43)cc21 (mixture of isomers)
IC50 / nM: 2.1
//
Compound: CNC(C)=C1C(=O)Nc2ccc(S(=O)(=O)N(CC(C)C)C[C@@H](O)[C@H](Cc3ccccc3)NC(=O)O[C@H]3CO[C@H]4OCC[C@H]43)cc21 (mixture of isomers)
IC50 / nM: 5
//
Compound: CC(C)CN(C[C@@H](O)[C@H](Cc1ccccc1)NC(=O)O[C@H]1CO[C@H]2OCC[C@H]21)S(=O)(=O)c1ccc2c(c1)C(=CNC1CCC1)C(=O)N2 (mixture of isomers)
IC50 / nM: 7

Request: IC50, test system Human immunodeficiency virus 1, entry CC(C)CN(C[C@@H](O)[C@H](Cc1ccccc1)NC(=O)O[C@H]1CO[C@H]2OCC[C@H]21)S(=O)(=O)c1ccc2c(c1)C(=CNCc1ccccc1)C(=O)N2 (mixture of isomers) 4.1

Query for Human immunodeficiency virus 1: what IC50 does the record show for CC(N)=C1C(=O)Nc2ccc(S(=O)(=O)N(CC(C)C)C[C@@H](O)[C@H](Cc3ccccc3)NC(=O)O[C@H]3CO[C@H]4OCC[C@H]43)cc21 (mixture of isomers) ? 30

Item: COC(=O)N[C@H](C(=O)N[C@@H](Cc1ccccc1)[C@@H](O)CN(Cc1ccc(-c2ccccn2)cc1)NC(=O)[C@@H](NC(=O)OC)C(C)(C)C)C(C)(C)C Test system: Human immunodeficiency virus 1 Read-out: IC50 Value: ? 105

###

The entries below are paired with their reported pIC50.
- System: Human immunodeficiency virus 1
- Protocol: Antiviral activity against Human immunodeficiency virus 1 HXB2 expressing protease M8 mutant infected in human MT4 cells after 5 days by MTT assay
- Type: functional, organism-based
- Measurement context: Human immunodeficiency virus 1, HXB2, MT4, 120 h
pIC50 here is simply -log10 of the concentration when that concentration is written in mol/L.

Completed entries (count: 3):
Molecule: CC(C)CN(C[C@@H](O)[C@H](Cc1ccccc1)NC(=O)O[C@H]1CO[C@H]2OCC[C@H]21)S(=O)(=O)c1ccc2c(c1)C(=CN)C(=O)N2 (mixture of isomers)
Endpoint result: 6.70
--
Molecule: CC(C)CN(C[C@@H](O)[C@H](Cc1ccccc1)NC(=O)O[C@H]1CO[C@H]2OCC[C@H]21)S(=O)(=O)c1ccc2c(c1)C(=CNC(C)(C)C)C(=O)N2 (mixture of isomers)
Endpoint result: 7.46
--
Molecule: Cc1nc(CNC=C2C(=O)Nc3ccc(S(=O)(=O)N(CC(C)C)C[C@@H](O)[C@H](Cc4ccccc4)NC(=O)O[C@H]4CO[C@H]5OCC[C@H]54)cc32)cs1 (mixture of isomers)
Endpoint result: 7.40

pIC50 lookup needed for COC(=O)N[C@H](C(=O)N[C@@H](Cc1ccccc1)[C@@H](O)CN(Cc1ccc(-c2ccccn2)cc1)NC(=O)[C@@H](NC(=O)OC)C(C)(C)C)C(C)(C)C , thanks. 6.12

Look up pIC50: CCCCNC=C1C(=O)Nc2ccc(S(=O)(=O)N(CC(C)C)C[C@@H](O)[C@H](Cc3ccccc3)NC(=O)O[C@H]3CO[C@H]4OCC[C@H]43)cc21 (mixture of isomers) 7.60
